Where do the numbers come from? From ChEMBL document CHEMBL4152252.

# procedure text: Drug level in rat liver cytosol assessed as CYP450-mediated metabolite formation treated with 1-Butyl-6-fluoro-N-(4-fluorobenzyl)-7-morpholino-4-oxo-1,4-dihydroquinoline-3-carboxamide at 100 uM using NADPH/H+ as co-factor after 30 to 90 mins by LC/MSD iom trap method
# Type: ADME, subcellular
measured quantity: Drug metabolism

CC(O)CCn1cc(C(=O)NCc2ccc(F)cc2)c(=O)c2cc(F)c(N3CCOCC3)cc21 (centres undefined)
Metabolite_Detected
O=C(NCc1ccc(F)cc1)c1c[nH]c2cc(N3CCOCC3)c(F)cc2c1=O
Metabolite_Detected
CCCCn1cc(C(=O)O)c(=O)c2cc(F)c(N3CCOCC3)cc21
Metabolite_Detected
Cn1cc(C(=O)NCc2ccc(F)cc2)c(=O)c2cc(F)c(N3CCOCC3)cc21
Metabolite_Detected
